The values you see were collected from ChEMBL document CHEMBL1629484.

# ASSAY_NAME: Half life in fasted Sprague-Dawley rat at 0.5 mg/kg, iv and 2 mg/kg, po
# Format: ADME, organism-based
# APPLIED_CONDITIONS: in vivo
Each entry below carries its reported half-life.
OBSERVABLE: half-life

>>> observed_result("CC(C)N1CCN(c2nc3c(c(Nc4ccc(C(F)(F)F)cc4)n2)CCN(c2ncccc2C(F)(F)F)CC3)CC1")
"1.5 h"
>>> observed_result("CC(C)CN1CCN(c2nc3c(c(Nc4ccc(C(F)(F)F)cc4)n2)CCN(c2ncccc2C(F)(F)F)CC3)CC1")
"1.8 h"
>>> observed_result("FC(F)(F)c1ccc(Nc2nc(N3CCN(C4CC4)CC3)nc3c2CCN(c2ncccc2C(F)(F)F)CC3)cc1")
"1.6 h"

###

Each entry below carries its reported pIC50.
# ASSAY_SYSTEM: Transient receptor potential cation channel subfamily V member 1 (Rattus norvegicus, UniProt O35433)
# Sequence (O35433 whole entry): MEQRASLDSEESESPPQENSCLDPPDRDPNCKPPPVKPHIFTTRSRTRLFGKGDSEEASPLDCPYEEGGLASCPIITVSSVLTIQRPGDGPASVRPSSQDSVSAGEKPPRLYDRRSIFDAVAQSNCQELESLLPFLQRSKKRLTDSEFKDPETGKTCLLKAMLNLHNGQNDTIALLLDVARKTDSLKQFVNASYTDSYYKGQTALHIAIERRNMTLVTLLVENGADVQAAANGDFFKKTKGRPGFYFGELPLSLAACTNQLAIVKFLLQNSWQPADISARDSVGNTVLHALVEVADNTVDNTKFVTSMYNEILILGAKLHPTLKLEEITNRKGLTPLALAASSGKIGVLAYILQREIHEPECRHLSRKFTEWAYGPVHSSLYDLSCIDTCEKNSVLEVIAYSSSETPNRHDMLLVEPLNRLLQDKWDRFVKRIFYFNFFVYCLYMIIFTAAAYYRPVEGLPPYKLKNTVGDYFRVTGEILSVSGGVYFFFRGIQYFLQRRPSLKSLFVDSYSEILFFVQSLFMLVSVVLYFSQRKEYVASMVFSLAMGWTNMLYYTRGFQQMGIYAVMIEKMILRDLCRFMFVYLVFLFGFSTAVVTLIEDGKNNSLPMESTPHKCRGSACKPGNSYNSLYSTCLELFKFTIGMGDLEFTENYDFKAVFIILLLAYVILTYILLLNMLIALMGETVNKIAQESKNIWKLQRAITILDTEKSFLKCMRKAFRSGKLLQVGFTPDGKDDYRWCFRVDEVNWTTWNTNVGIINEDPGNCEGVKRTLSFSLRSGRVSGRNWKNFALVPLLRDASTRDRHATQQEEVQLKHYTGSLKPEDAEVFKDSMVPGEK
# ASSAY_NAME: Antagonist activity at rat TRPV1 expressed in HEK293 cells assessed as inhibition of capsaicin-induced intracellular Ca2+ level by FLIPR assay
# Type: functional, cell-based
pIC50: −log10 of the molar value.
OBSERVABLE: pIC50

>>> observed_result("CN1CCCC(Nc2nc3c(c(Nc4ccc(C(F)(F)F)cc4)n2)CCN(c2ncccc2C(F)(F)F)CC3)C1 (stereo not drawn)")
"< 5.30"
>>> observed_result("CNC1CCN(c2nc3c(c(Nc4ccc(C(F)(F)F)cc4)n2)CCN(c2ncccc2C(F)(F)F)CC3)C1 (stereo not drawn)")
"< 5.30"
>>> observed_result("FC(F)(F)c1ccc(Nc2nc(NCC3CCCCN3)nc3c2CCN(c2ncccc2C(F)(F)F)CC3)cc1 (stereo not drawn)")
"< 5.30"

###

# ASSAY_NAME: Aqueous equilibrium solubility of compound in phosphate buffer at pH 2
# Type: physicochemical
OBSERVABLE: solubility thermodynamic

>>> observed_result("CC(C)CN1CCN(c2nc3c(c(Nc4ccc(C(F)(F)F)cc4)n2)CCN(c2ncccc2C(F)(F)F)CC3)CC1")
"> 237 µg/mL"
>>> observed_result("CN(C)CCN(C)c1nc2c(c(Nc3ccc(C(F)(F)F)cc3)n1)CCN(c1ncccc1C(F)(F)F)CC2")
"> 221 µg/mL"
>>> observed_result("CNC1CCN(c2nc3c(c(Nc4ccc(C(F)(F)F)cc4)n2)CCN(c2ncccc2C(F)(F)F)CC3)C1 (stereo unspecified)")
"> 220 µg/mL"
>>> observed_result("CN(C)[C@@H]1CCN(c2nc3c(c(Nc4ccc(C(F)(F)F)cc4)n2)CCN(c2ncccc2C(F)(F)F)CC3)C1")
"> 226 µg/mL"
>>> observed_result("CC(C)N1CCN(c2nc3c(c(Nc4ccc(C(F)(F)F)cc4)n2)CCN(c2ncccc2C(F)(F)F)CC3)CC1")
"> 232 µg/mL"
>>> observed_result("COCCN1CCN(c2nc3c(c(Nc4ccc(C(F)(F)F)cc4)n2)CCN(c2ncccc2C(F)(F)F)CC3)CC1")
"> 238 µg/mL"

###

# ASSAY_SYSTEM: Transient receptor potential cation channel subfamily V member 1 (Homo sapiens, UniProt Q8NER1)
# Sequence (Q8NER1 whole entry): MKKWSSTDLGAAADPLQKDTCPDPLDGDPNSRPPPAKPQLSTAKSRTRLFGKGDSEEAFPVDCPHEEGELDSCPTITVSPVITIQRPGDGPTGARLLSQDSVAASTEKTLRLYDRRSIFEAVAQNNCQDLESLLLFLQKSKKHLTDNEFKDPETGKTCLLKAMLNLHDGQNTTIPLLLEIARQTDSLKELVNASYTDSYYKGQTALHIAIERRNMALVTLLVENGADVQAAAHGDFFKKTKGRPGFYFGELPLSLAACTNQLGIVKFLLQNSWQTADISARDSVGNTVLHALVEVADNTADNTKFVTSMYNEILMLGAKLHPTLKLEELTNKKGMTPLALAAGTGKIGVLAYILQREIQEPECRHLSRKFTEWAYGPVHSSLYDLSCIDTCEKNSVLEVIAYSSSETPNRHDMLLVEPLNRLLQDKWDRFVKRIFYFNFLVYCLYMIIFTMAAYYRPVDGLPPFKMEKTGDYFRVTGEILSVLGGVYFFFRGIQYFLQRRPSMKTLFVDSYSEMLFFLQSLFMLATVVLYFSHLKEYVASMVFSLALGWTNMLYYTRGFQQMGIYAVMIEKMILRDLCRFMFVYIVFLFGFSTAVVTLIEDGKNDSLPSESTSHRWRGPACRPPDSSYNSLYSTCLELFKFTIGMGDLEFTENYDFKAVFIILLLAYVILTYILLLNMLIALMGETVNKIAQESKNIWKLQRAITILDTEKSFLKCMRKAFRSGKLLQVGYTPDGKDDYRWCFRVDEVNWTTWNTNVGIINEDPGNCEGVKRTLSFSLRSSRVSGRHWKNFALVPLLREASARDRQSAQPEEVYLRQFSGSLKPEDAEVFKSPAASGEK
# ASSAY_NAME: Antagonist activity at human TRPV1 expressed in HEK293 cells assessed as inhibition of capsaicin-induced intracellular Ca2+ level by FLIPR assay
# Assay type: functional, cell-based
OBSERVABLE: IC50 (nM)

>>> observed_result("FC(F)(F)c1ccc(Nc2nc(N3CCN(C4CCCC4)CC3)nc3c2CCN(c2ncccc2C(F)(F)F)CC3)cc1")
15
>>> observed_result("FC(F)(F)c1ccc(Nc2nc(N3CCN(C4CCC4)CC3)nc3c2CCN(c2ncccc2C(F)(F)F)CC3)cc1")
24
>>> observed_result("CN(c1nc2c(c(Nc3ccc(C(F)(F)F)cc3)n1)CCN(c1ncccc1C(F)(F)F)CC2)C1CCCN(C(=O)OC(C)(C)C)C1 (stereo not drawn)")
53
